tested.system: CETP (Homo sapiens, UniProt P11597)
Construct: The CETP activity in this plasma was measured with Cholesteryl Ester Transfer Protein Activity kit
Sequence (P11597 18-493): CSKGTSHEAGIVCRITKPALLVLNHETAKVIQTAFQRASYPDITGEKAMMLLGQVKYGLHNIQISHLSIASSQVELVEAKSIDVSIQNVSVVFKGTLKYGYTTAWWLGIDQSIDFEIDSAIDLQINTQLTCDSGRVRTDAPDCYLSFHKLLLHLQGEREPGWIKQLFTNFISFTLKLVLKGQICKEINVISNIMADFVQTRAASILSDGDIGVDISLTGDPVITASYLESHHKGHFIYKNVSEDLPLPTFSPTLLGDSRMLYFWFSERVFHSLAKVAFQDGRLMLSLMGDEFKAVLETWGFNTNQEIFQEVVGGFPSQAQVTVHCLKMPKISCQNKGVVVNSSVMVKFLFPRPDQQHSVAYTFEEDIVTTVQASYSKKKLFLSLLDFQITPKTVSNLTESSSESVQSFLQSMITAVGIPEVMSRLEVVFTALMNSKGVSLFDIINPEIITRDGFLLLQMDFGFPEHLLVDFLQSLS
test.description: Measurement of CETP inhibitory action in human plasma
measurement.conditions: incubated with compound 37° C. 4 hours, Roar Biomedical CETP Activity kit, read-out: IC50 (concentration inhibiting the CETP activity by 50%)
// values below are reported pIC50
In plain terms, pIC50 is the concentration in mol/L turned into minus its base-10 logarithm.

molecule	attribute.measured	readout.value
CCN(CC1CCCC1)c1cc(Br)ccc1CN(c1ncc(OCCS(C)(=O)=O)cn1)C(C)c1cc(C(F)(F)F)cc(C(F)(F)F)c1 (centres unmarked)	pIC50	6.70
CCN(CC1CCCC1)c1cc(F)c(F)cc1CN(c1ncc(OCCS(C)(=O)=O)cn1)C(C)c1cc(C(F)(F)F)cc(C(F)(F)F)c1 (centres unmarked)	pIC50	6.30
CCN(C[C@H]1CC[C@H](CC(=O)O)CC1)c1ccc(C(F)(F)F)cc1CN(c1ncc(OCCS(C)(=O)=O)cn1)C(C)c1cc(C(F)(F)F)cc(C(F)(F)F)c1 (some centres unmarked)	pIC50	6.92
CCN(CC1CCCC1)c1cc(C(F)(F)F)ccc1CN(c1ncc(OCC[S+](C)[O-])cn1)C(C)c1cc(C(F)(F)F)cc(C(F)(F)F)c1 (centres unmarked)	pIC50	6.52

Query: Field request: pIC50 | item: CCN(CC1CCCC1)c1cc(Cl)ccc1CN(c1ncc(OCCS(C)(=O)=O)cn1)C(C)c1cc(C(F)(F)F)cc(C(F)(F)F)c1 (centres unmarked)
Reply: 6.52
